biological target: Proto-oncogene tyrosine-protein kinase Src (Rattus norvegicus); assay: Inhibition of src kinase activity in Src transformed rat fibroblasts
Sequence (Q9WUD9 2-536 limits assumed): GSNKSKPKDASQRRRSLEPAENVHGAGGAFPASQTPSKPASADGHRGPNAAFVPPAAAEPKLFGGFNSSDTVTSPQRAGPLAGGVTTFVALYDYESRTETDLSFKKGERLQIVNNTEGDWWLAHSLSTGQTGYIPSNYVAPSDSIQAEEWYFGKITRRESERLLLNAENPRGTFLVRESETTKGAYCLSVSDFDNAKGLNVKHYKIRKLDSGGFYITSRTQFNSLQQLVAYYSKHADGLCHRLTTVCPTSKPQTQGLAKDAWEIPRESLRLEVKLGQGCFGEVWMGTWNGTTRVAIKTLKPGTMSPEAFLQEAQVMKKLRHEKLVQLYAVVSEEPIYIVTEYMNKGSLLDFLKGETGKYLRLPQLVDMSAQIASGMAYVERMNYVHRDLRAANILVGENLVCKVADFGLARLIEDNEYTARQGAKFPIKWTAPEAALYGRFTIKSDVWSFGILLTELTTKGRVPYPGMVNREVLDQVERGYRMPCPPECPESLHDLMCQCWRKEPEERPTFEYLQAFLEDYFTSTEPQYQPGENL
For each record, write down the corresponding log10 of IC50.
Log scale reminder: IC50 in µM, then log10 taken.

*Q* Specify log10 of IC50 for COc1cc(Nc2c(C#N)cnc3cc4[nH]cnc4cc23)c(Br)cc1Cl and stop.
*A* 0.45

*Q* Specify log10 of IC50 for COc1ccc(Cl)c(Nc2c(C#N)cnc3cc4[nH]cnc4cc23)c1 and stop.
*A* 1.02

*Q* Specify log10 of IC50 for N#Cc1cnc2cc3[nH]cnc3cc2c1Nc1ccc(Cl)cc1Br and stop.
*A* 1.00

*Q* Specify log10 of IC50 for COc1cc(Nc2c(C#N)cnc3cc4c(cc23)ncn4CCN2CCOCC2)c(C)cc1Cl and stop.
*A* 0.59

*Q* Specify log10 of IC50 for COc1cc(Nc2c(C#N)cnc3cc4c(cc23)ncn4CCN2CCOCC2)c(Br)cc1Cl and stop.
*A* -0.17

*Q* Specify log10 of IC50 for COc1ccc(C)c(Nc2c(C#N)cnc3cc4c(cc23)ncn4CCN2CCOCC2)c1 and stop.
*A* 0.52

*Q* Specify log10 of IC50 for COc1ccc(Cl)c(Nc2c(C#N)cnc3cc4c(cc23)ncn4CCN2CCOCC2)c1 and stop.
*A* 0.08
